Value source: paper PMC12415213

Listing of recorded IC50 by entry.
molecular target: S. mansoni p97 (Smp_018240) (Schistosoma mansoni); format: biochemical
Sequence (G4M0P7 entry or part of it): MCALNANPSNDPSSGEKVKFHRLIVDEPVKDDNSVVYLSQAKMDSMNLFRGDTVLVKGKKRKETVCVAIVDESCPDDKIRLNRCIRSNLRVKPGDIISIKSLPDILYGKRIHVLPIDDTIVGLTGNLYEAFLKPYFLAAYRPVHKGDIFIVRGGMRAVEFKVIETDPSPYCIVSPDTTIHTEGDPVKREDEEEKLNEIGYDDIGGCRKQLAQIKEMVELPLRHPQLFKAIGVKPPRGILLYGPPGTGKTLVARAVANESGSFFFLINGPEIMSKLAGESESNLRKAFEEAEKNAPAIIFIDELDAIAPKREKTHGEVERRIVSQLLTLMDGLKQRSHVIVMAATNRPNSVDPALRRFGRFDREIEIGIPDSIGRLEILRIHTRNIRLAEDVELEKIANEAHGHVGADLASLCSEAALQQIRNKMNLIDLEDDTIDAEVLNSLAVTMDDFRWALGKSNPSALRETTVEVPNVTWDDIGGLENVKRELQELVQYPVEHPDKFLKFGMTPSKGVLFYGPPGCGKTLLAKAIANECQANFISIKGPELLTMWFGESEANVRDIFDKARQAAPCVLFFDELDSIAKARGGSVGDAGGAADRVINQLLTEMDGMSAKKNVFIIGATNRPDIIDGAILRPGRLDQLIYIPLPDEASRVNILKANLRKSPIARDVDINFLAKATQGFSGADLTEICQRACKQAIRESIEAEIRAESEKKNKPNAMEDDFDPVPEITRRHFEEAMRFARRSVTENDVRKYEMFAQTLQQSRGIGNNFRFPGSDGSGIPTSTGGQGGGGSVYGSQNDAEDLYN

| COMPOUND | IC50, nM |
| --- | --- |
| O=C(C#Cc1ccccc1)Nc1ccc2oc(-c3ccncc3)nc2c1 [Compound 242] | 1400 |
| Cc1cccc(-c2nc3cc(NC(=O)C#Cc4ccncc4)ccc3o2)n1 [Compound 807] | 670 |
| Cc1cccnc1-c1nc2cc(NC(=O)C#Cc3ccncc3)ccc2o1 [Compound 804] | 190 |
| COc1ccc(C#CC(=O)Nc2ccc3oc(-c4ccccn4)nc3c2)cc1 [Compound 734] | 48000 |
| O=C(C#Cc1cccc(Cl)c1)Nc1ccc2oc(-c3ccccn3)nc2c1 [Compound 735] | 11000 |
| O=C(C#Cc1ccc(Cl)cc1)Nc1ccc2oc(-c3ccccn3)nc2c1 [Compound 736] | 5900 |
| Cc1ccc(-c2nc3cc(NC(=O)C#Cc4ccncc4)ccc3o2)nc1 [Compound 806] | 470 |
| O=C(C#Cc1ccccn1)Nc1ccc2oc(-c3ccccn3)nc2c1 [Compound 737] | 3000 |
| O=C(C#Cc1cccnc1)Nc1ccc2oc(-c3ccccn3)nc2c1 [Compound 738] | 420 |

---

molecular target: H. sapiens p97 (P55072) (Homo sapiens, UniProt P55072); construct: purified recombinant full-length (1-806aa) H; 6xHis (N); made in house; host or cells: E. coli BL21 (DE3); assay: Kinase-Glo ATP consumption assay, recombinant H. sapiens p97; assay type: biochemical; details: recombinant Hsp97, Kinase-Glo, 100 μM to 1 nM; NA = no notable effect on the enzyme at tested concentrations; >100 = IC50 predicted above 100 μM or maximal inhibition not achieved
Sequence (P55072 whole entry): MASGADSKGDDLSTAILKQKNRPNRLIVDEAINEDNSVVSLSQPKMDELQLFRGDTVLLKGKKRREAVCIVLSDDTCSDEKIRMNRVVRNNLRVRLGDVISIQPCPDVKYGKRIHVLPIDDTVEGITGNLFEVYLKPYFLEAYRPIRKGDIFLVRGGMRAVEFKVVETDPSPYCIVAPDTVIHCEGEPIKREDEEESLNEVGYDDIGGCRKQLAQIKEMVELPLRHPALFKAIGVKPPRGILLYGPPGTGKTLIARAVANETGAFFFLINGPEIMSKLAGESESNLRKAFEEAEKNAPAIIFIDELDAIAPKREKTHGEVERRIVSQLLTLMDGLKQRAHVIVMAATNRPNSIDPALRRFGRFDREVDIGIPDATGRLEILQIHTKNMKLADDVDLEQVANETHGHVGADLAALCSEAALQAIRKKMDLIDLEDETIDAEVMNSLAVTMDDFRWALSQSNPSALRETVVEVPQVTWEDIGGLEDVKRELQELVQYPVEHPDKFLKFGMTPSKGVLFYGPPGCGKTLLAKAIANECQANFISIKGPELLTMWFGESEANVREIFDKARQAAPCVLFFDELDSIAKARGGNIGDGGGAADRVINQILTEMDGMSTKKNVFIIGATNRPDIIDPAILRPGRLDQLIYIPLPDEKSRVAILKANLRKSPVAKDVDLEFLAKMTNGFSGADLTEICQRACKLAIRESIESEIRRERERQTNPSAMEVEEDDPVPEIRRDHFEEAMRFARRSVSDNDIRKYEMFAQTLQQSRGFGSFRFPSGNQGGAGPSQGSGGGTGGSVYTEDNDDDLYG
Hi! Just check whether IC50 is below 800 nM. Below gives condition met, equal or above gives condition not met.

| COMPOUND | CLASS_LABEL |
| --- | --- |
| Cc1cccnc1-c1nc2cc(NC(=O)C#Cc3ccncc3)ccc2o1 [Compound 804] | condition met |
| O=C(C#Cc1ccccc1)Nc1ccc2oc(-c3ccccn3)nc2c1 [Compound 243] | condition not met |
| Cc1cccc(-c2nc3cc(NC(=O)C#Cc4ccncc4)ccc3o2)n1 [Compound 807] | condition met |
| O=C(C#Cc1ccncc1)Nc1ccc2oc(-c3ccccn3)nc2c1 [Compound 739] | condition met |
| O=C(C#Cc1cccc(Cl)c1)Nc1ccc2oc(-c3ccccn3)nc2c1 [Compound 735] | condition not met |
| O=C(C#Cc1ccc(Cl)cc1)Nc1ccc2oc(-c3ccccn3)nc2c1 [Compound 736] | condition not met |

---

Molecular target: S. mansoni p97 (Smp_018240) (Schistosoma mansoni)
Assay type: biochemical
Conditions: recombinant full-length enzyme, Kinase-Glo, 100 μM to 1 nM
Protocol: Evaluation of p97’s ATPase activity and compound potency For manual ATP consumption assays, 1 µM p97 was incubated with 1% DMSO or inhibitor (1% DMSO final) in assay buffer [50 mM Tris (pH 7.5), 20 mM MgCl2, 1 mM EDTA, 0.5 mM tris(2-carboxyethyl)phosphine (TCEP)] for 5 minutes prior to the addition of 20 µM ATP in a 384-well plate for a total reaction volume of 10 µL, and a final concentration of 500nM enzyme and 10 µM ATP. […] Luminescence was read using a BioTek Synergy 2 plate reader […]
ATTRIBUTE_MEASURED: IC50 (nM)

| COMPOUND | ATTRIBUTE_MEASURED | OBSERVED_VALUE |
| --- | --- | --- |
| CC(C)N1CCN(CCNC2CCN(c3cccc(-c4cc5cc(F)ccc5[nH]4)c3)CC2)CC1 [UPCDC-30245, reference compound] | IC50 | 4100 |
| COc1cccc2c(NCc3ccccc3)nc(-n3c(N)nc4ccccc43)nc12 [ML240, reference compound] | IC50 | 66 |
| O=C(C#Cc1ccncc1)Nc1ccc2oc(-c3ccccn3)nc2c1 | IC50 | 150 |
| c1ccc(CNc2nc(NCc3ccccc3)c3ccccc3n2)cc1 [DbeQ, reference compound] | IC50 | 12000 |
| Cc1cc(OCc2nnc(SC3CCCC3)n2-c2cccnc2)ccc1-c1ccc(S(C)(=O)=O)cc1 | IC50 | 230 |
